assay: Cytotoxicity against mouse HT22 cells assessed as cell viability at 5 uM after 24 hrs by MTT assay relative to control; format: toxicity, HT-22; settings: read-out: Activity
Quick reference for viability at 24 h, 5 µM among some compounds

Some compounds with recorded viability at 24 h, 5 µM:
COMPOUND: O=C(NCCCN1CCCCC1)c1ccc(Cn2c(Cc3c(Cl)cccc3Cl)nc3ccccc32)cc1
viability at 24 h, 5 µM: 86 to 118%
//
COMPOUND: Cc1ccc(C(C)C)cc1NC(=O)Cn1c(-c2cc(Cl)ccc2Cl)nc2ccc(Cl)cc21
viability at 24 h, 5 µM: 86 to 106%
//
COMPOUND: CCN1CCCC1CNC(=O)c1ccc(Cn2c(Cc3c(Cl)cccc3Cl)nc3ccccc32)cc1 (stereo not given)
viability at 24 h, 5 µM: 62 to 122%
//
COMPOUND: O=C(NCCN1CCCCC1)c1ccc(Cn2c(Cc3c(Cl)cccc3Cl)nc3ccccc32)cc1
viability at 24 h, 5 µM: 87%

Okay, next one:
Look at this compound and give its reported viability at 24 h, 5 µM. CN(C)CCCNC(=O)c1ccc(Cn2c(Cc3c(Cl)cccc3Cl)nc3ccccc32)cc1 93 to 111%

###

Quick reference for Activity among some molecules
target: Translocator protein (Mus musculus); assay: Inhibition of TSPO in mouse HT22 cells assessed as protection against amyloid beta (1 to 42)-induced mitochondrial membrane potential loss by measuring recovery of mitochondrial membrane potential at 5 uM preincubated for 10 mins followed by amyloid beta (1 to 42) addition measured every 1 hr for 3 hrs by JC1 staining based fluorescence assay relative to control; assay type: cell-based; design: scale not given: the % may be the effect or the level left; settings: HT-22
Reply with the number, then its unit.

MOLECULE: O=C(NCCCc1ccco1)c1ccc(Cn2c(SCc3ccc(F)cc3)nc3ncccc32)cc1
Activity: 52%

MOLECULE: O=C(Cn1c(-c2cc(Cl)ccc2Cl)nc2cc(Cl)ccc21)Nc1cc(Cl)cc(Cl)c1
Activity: 77%

Look at this molecule and give its reported Activity. COc1ccc(OC)c(Cc2nc3ccccc3n2CC(=O)Nc2cc(Cl)cc(Cl)c2)c1 68%

###

Quick reference for activity at 20 min, 10 µM among some compounds
molecular target: CYP2C9 (Homo sapiens, UniProt P11712); test: Inhibition of recombinant human CYP2C9 expressed in baculosomes coexpressing rabbit NADPH-P450 reudctase assessed as residual activity at 10 uM preincubated for 5 mins followed by substrate and NADP+ addition measured after 20 mins by fluorescence assay relative to control; assay type: ADME; settings: read-out: Activity
Sequence (P11712 whole entry): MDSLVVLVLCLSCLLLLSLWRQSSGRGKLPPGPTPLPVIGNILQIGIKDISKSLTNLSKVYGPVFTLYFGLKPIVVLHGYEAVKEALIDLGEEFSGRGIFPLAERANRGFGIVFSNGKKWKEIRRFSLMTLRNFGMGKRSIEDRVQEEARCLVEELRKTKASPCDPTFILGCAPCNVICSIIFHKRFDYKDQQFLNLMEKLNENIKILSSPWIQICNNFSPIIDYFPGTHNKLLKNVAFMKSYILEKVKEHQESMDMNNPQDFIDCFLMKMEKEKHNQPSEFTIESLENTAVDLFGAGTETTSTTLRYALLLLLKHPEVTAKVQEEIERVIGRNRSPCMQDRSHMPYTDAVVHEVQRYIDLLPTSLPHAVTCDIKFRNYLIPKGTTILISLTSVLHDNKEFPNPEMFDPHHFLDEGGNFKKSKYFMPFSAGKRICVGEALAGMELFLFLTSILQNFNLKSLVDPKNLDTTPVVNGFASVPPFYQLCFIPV
Reply with the number, then its unit.

COMPOUND: CN(C)CCCNC(=O)c1ccc(Cn2c(Cc3c(Cl)cccc3Cl)nc3ccccc32)cc1
TGT: CYP2C9 (Homo sapiens, UniProt P11712)
activity at 20 min, 10 µM: 53.9%
--
COMPOUND: Cc1ccc(C(C)C)cc1NC(=O)Cn1c(-c2cc(Cl)ccc2Cl)nc2ccc(Cl)cc21
TGT: CYP2C9 (Homo sapiens, UniProt P11712)
activity at 20 min, 10 µM: 29.6%

Look at this compound and give its reported activity at 20 min, 10 µM. O=C(NCCCN1CCCCC1)c1ccc(Cn2c(Cc3c(Cl)cccc3Cl)nc3ccccc32)cc1 61.1%

Try this compound next: CCN1CCCC1CNC(=O)c1ccc(Cn2c(Cc3c(Cl)cccc3Cl)nc3ccccc32)cc1 (stereo unspecified) 50.6%

Try this compound next: COc1ccc(OC)c(Cc2nc3ccccc3n2CC(=O)Nc2cc(C(C)(C)C)cc(C(C)(C)C)c2)c1 36.1%

Try this compound next: Cc1ccc(C(C)C)cc1NC(=O)Cn1c(Cc2c(Cl)cccc2Cl)nc2ccccc21 54.7%

Just for reference, ChEMBL document CHEMBL3877298 is where these values come from.
